The entries below are paired with their reported Emax.
target: hAT1R (Homo sapiens); assay: FLIPR calcium flux assay, Part I: agonist activity; assay type: cell-based; settings: ChanTest hAT1R stable cells; % MPE, percent of the maximal possible effect; read-out: hAT1R Agonist Efficacy Agonist (%) Ave
Sequence (P30556 whole entry): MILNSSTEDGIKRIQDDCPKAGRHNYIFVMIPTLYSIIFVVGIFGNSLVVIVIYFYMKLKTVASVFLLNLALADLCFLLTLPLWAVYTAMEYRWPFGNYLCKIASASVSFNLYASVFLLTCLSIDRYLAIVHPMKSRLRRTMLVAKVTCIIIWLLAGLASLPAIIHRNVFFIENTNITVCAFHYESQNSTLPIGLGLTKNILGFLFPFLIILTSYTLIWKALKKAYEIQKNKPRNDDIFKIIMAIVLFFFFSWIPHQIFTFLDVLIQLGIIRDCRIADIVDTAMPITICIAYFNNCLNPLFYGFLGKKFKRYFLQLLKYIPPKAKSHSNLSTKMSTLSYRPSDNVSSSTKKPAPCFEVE
Starred links: 1 amine or outer side, 2 acyl side, 3 side chain; linkers in the order of their positions; H or OH if unused. Non-standard residues stand in square brackets, D forms with d. Residues, ends and D or L forms follow the SMILES beside them. X1 = O=C(CN(C[C@H](O)[C@@H](O)[C@H](O)[C@H](O)CO)[*:1])[*:2]; dPhe(2-Me) = Cc1ccccc1C[C@@H](N)C(=O)O; Gly(cPent) = N[C@H](C(=O)O)C1CCCC1
observation.type: Emax (%)

molecule="CC(C)[C@H](NC(=O)[C@H](CCCNC(=N)N)NC(=O)CNC[C@H](O)[C@@H](O)[C@H](O)[C@H](O)CO)C(=O)N[C@@H](Cc1ccc(O)cc1)C(=O)N[C@H](C(=O)N[C@@H](Cc1c[nH]cn1)C(=O)N1CCC[C@H]1C(=O)N[C@H](Cc1csc2ccccc12)C(=O)O)C(C)C [Compound 38] (HELM PEPTIDE1{[O=C(CNC[C@H](O)[C@@H](O)[C@H](O)[C@H](O)CO)[*:2]].R.V.Y.V.H.P.[O=C(O)[C@@H](Cc1csc2ccccc12)N[*:1]]}$$$$V2.0)" experimental_target="hAT1R (Homo sapiens)" value_units=% result_value=5
molecule="Cc1ccccc1C[C@@H](NC(=O)[C@@H]1CCCN1C(=O)[C@H](Cc1c[nH]cn1)NC(=O)[C@@H](NC(=O)[C@H](Cc1ccc(O)cc1)NC(=O)[C@@H](NC(=O)[C@H](CCCNC(=N)N)NC(=O)CNC[C@H](O)[C@@H](O)[C@H](O)[C@H](O)CO)C(C)C)C1CCCC1)C(=O)O [Compound 44] (H-[X1]RVY[Gly(cPent)]HP[dPhe(2-Me)]-OH)" experimental_target="hAT1R (Homo sapiens)" value_units=% result_value=7
molecule="CNCC(=O)N[C@@H](CCCNC(=N)N)C(=O)N[C@H](C(=O)N[C@@H](Cc1ccc(O)cc1)C(=O)N[C@@H](Cc1ccc(N)cc1)C(=O)N[C@@H](Cc1c[nH]cn1)C(=O)N1CCC[C@H]1C(=O)N[C@H](Cc1ccccc1Cl)C(=O)O)C(C)C [Compound 20] (HELM PEPTIDE1{[Sar].R.V.Y.[Nc1ccc(C[C@H](N[*:1])C(=O)[*:2])cc1].H.P.[O=C(O)[C@@H](Cc1ccccc1Cl)N[*:1]]}$$$$V2.0)" experimental_target="hAT1R (Homo sapiens)" value_units=% result_value=5
